- Experimental target: OE19 (3A1) (Homo sapiens, UniProt P30838)
- Sequence (P30838 whole entry): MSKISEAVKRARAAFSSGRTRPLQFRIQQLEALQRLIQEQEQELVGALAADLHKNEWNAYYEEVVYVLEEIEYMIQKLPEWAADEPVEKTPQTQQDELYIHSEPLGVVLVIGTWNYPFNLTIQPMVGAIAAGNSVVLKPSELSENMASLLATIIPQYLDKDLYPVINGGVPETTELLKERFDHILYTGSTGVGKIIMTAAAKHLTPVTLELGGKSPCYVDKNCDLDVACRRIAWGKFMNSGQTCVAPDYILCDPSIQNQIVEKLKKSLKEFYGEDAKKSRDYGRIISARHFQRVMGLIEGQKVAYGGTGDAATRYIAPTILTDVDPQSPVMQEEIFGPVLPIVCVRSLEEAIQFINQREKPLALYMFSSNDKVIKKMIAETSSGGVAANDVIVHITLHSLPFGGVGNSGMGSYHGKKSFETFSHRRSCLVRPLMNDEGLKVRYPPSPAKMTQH
- Experimental protocol: Cellular ALDEFLUOR assay in OE19 cells (preferential ALDH3A1 expression)
- Test parameters: Table S4, OE19 cells
Assignment: determine reported Cell_Efficacy for the given compounds.
Give bare numbers.

Report Cell_Efficacy for every entry below.
1. Cc1cccc(CNC(=O)c2csc(N3CCN(c4ccc(Br)cc4)CC3)n2)c1 [NCGC01211165-01]
2. Cc1cccc(CNC(=O)c2csc(N3CCN(c4ccc(Cl)c(Cl)c4)CC3)n2)c1 [NCGC01211120-01]
3. Cc1cccc(CNC(=O)c2csc(N3CCN(c4ccccc4F)CC3)n2)c1 [NCGC01211127-01]

Reply:
[-91.24, -88.59, -89.89]
